- tgt: T1, PSMA Fab (SEQ ID NOs: 19, 20)
- T1 construct: Biotinylated and captured on neutravidin coated plates in the phage ELISA; also called Anti-PSMA Fab; 006 PSMA Fab
- test: phage ELISA; biotinylated PSMA Fab on neutravidin plate, anti-M13 HRP; competitor PSMA antigen pre-incubated
Would you mind telling me the reported phage binding ELISA signal of each entry?
// return a plain number; no unit text

Entry WDKWCTPPWMCQVH [Phage-2559] needs its phage binding ELISA signal filled in; supply it. 0.0758

Please indicate phage binding ELISA signal recorded for SEIWCIPAWMCQST [Phage-2564] 0.0851

Annotate the binder YAPWCIPLWMCLDR [Phage-2561] with its measured phage binding ELISA signal. 0.161

Give the reported phage binding ELISA signal for this binder. WENWCTPTWMCWPN [Phage-2558] 0.0834

Retrieve phage binding ELISA signal measured for AIHWCTPPWMCEPQ [Phage-2569] and print it. 0.0777

Provide one value: measured phage binding ELISA signal of QYNWCVPAWMCEIS [Phage-2572] 0.0848

Give reported phage binding ELISA signal value for EPKWCTPPWMCENF [Phage-2567] 0.0576

Respond only with phage binding ELISA signal recorded for YDVLCKPDWMCNWN [Phage-2568] 0.0861

Fill in reported phage binding ELISA signal for this entry: EGPWCIPEWMCQNS [Phage-2570] 0.0766

In one line, give reported phage binding ELISA signal of the entry GVMWCIPQWMCVTA [Phage-2560] . 0.104

Look up and state reported phage binding ELISA signal for VDPWCKPAWMCLGM [Phage-2566] 0.0597

Identify measured phage binding ELISA signal corresponding to IAKLCTPAWMCERH [Phage-2562] 0.0803
